# MEASURED_ON: AXOR109 (Homo sapiens, UniProt Q8TDU6)
# Sequence (Q8TDU6 whole entry): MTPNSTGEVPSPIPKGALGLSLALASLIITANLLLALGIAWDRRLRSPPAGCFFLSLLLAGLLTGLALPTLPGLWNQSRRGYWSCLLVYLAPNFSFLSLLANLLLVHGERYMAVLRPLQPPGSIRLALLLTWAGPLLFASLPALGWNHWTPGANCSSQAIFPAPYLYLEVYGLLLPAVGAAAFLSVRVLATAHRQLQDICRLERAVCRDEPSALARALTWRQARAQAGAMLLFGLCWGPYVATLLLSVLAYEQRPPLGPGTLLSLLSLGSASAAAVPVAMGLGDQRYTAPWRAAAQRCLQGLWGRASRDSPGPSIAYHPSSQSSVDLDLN
# PROTOCOL: Human AXOR109/Melanophore Assay
# CONDITION_DETAILS: melanophore assay, AXOR109 transfected melanophores
// EC50 lookup, one value per entry

Would you please look over these solved cases?
{"COMPOUND": "COc1ccc(S(=O)(=O)N2CCCN(S(=O)(=O)c3ccc4c(c3)OCCO4)CC2)cc1OC", "EC50": "1.26 to 10 µM"}
{"COMPOUND": "CCN(C1CCCN(S(=O)(=O)c2ccc(OC)c(OC)c2)C1)S(=O)(=O)c1ccc(OC)c(OC)c1 (centres unmarked)", "EC50": "1.26 to 10 µM"}
{"COMPOUND": "COc1ccc(S(=O)(=O)N(C)CCN(C)S(=O)(=O)c2ccc3c(c2)n(C)c(=O)n3C)cc1OC", "EC50": "1.26 to 10 µM"}

For COc1ccc(S(=O)(=O)N2CCN(S(=O)(=O)c3ccc(OC)c(OC)c3)CC(F)(F)C2)cc1OC the compound record lists EC50 as 0.126 to 1 µM

For COc1ccc(S(=O)(=O)N(C[C@H]2CCCN2S(=O)(=O)c2ccc(OC)c(OC)c2)C(C)C)cc1OC the compound record lists EC50 as 0.126 to 1 µM

For COc1ccc(S(=O)(=O)N2CCC(N(CC(C)C)S(=O)(=O)c3ccc(OC)c(OC)c3)C2)cc1OC (centres unmarked) the compound record lists EC50 as 1.26 to 10 µM

For CCN([C@@H]1CCN(S(=O)(=O)c2ccc(OC)c(OC)c2)C1)S(=O)(=O)c1ccc(OC)c(OC)c1 the compound record lists EC50 as < 0.126 µM

For COc1ccc(S(=O)(=O)N2CCCN(S(=O)(=O)c3ccc(OC)c(OC)c3)CC2)cc1F the compound record lists EC50 as 1.26 to 10 µM
